Each recorded value in this set is attributed to patent US20070265189A1.

Measured Comparison IR/IGF-1R by item
# TEST_SYSTEM: T1, Insulin receptor prepared according to Bass et al., 1996 (human, UniProt P06213 28-956, limits assumed)
# T1 construct: extracellular domain; also called IR; soluble IR (Bass construct); not shown: immunoglobulin constant domains (Fc or lambda) of the Bass construct
# ASSAY_OVERVIEW: phage ELISA: IR ratio over background divided by IGF-1R ratio over background
Give me the value, and tack the unit on after it.

Known Comparison IR/IGF-1R results, listed for orientation:
BINDER: DYKDQSGSGDFYDWLSRLIRGNGDGAAAGAP (not shown: rest of the phage display fusion (remainder of E-Tag, phage coat protein)) [20E2Bβ-3-C7-IR]
RESULT: 0.5 ratio

BINDER: DYKDAGSVTSFYDAMEQLVATGTSAAAAGAP (not shown: rest of the phage display fusion (remainder of E-Tag, phage coat protein)) [20E2A-3-A4-IGFR]
RESULT: 0.7 ratio

Shifting focus to the binder that follows.
Exercise: Given the binder DYKDSRVAATKEKRPSDDPFYHKLSELLQGSAAAGAP (not shown: rest of the phage display fusion (remainder of E-Tag, phage coat protein)) [B6Hα-3-F7-IR] , what is its reported Comparison IR/IGF-1R?
Solution: 0.3 ratio
